For each record, write down the corresponding growth.
Test system: A549/ATCC NSCLC
Assay: NCI-60 one-dose screen, 48 h (100 = growth as untreated, 0 = no growth, -100 = all killed)
Settings: 10 µM unless noted
Method: Growth inhibition of the A549/ATCC human Non-Small Cell Lung tumor cell line is measured as a screen for anti-cancer activity. Cells are grown in 96 well plates and exposed to the test compound for 48 hours. Compounds are tested at a single concentration, which is 10^-5 M for most compounds. The reported endpoint is percent growth (GI% or GIPRCNT), where numbers from 0 - 100% represent growth inhibition, and numbers from -100% - 0 represent cell death. […]
About 83,000 compounds went through this panel and 20% of them were active in at least one assay; those are over-represented in the sample as a whole.
Numbers only, in %.

Field: example entries. Status: answers known.
# Molecule, growth (%)
rows = [
    ("COC12C=C/C(=C(/C(=O)OCc3csc(SC)n3)C(=O)CCCCCCCCC3(OC)C=C/C(=C(/C(=O)OCc4cnc(SC)s4)C(=O)CCCCCCCC1)O3)O2 (stereo unspecified)", 39.8),
    ("CSc1ccc(N2C(=N)C(=S)N(c3ccc(C)cc3)C2=O)cc1", 87.6),
    ("S=c1ccnc[nH]1", 98.2),
    ("C1CCC(N2CN3c4nonc4N4CN(C5CCCCC5)CN5c6nonc6N(C2)C3C45)CC1 (stereo unspecified)", 92.4),
    ("COC(=O)/C=C1/SC(=Nc2ccc(F)cc2)N(CCc2c[nH]c3ccc(O)cc23)C1=O", 69.5),
]

Each of the following entries comes with a recorded value; kindly state growth for each.
1. COc1cc2ncnc(Nc3ccc(F)c(Cl)c3)c2cc1OCC(=O)N1CCOCC1
2. COc1ccc(Nc2ncc(I)c(NCCCNC(=O)C3CCC3)n2)cc1
3. N#Cc1c(-c2cccc(Cl)c2)cc(-c2cccnc2)[nH]c1=O

[74.8, -37.6, 93]

List growth for every entry below, keeping the order given.
1. Nc1ncnc2c1N=C(c1ccc(F)cc1)CC(c1cccc(Nc3ccnc4cc(Cl)ccc34)c1)N2 (stereo unspecified)
2. N#Cc1nn(-c2cc(=O)[nH]c3ccc(Br)cc23)c(N)c1C#N
3. CCOC(=O)CC1CSC(N/N=C/c2ccc(F)c(Br)c2)=N1 (stereo unspecified)
4. CC1(/C=C/c2ccc(-c3ccccc3)cc2)CCn2cnc3ncnc(c32)N1O (stereo unspecified)
5. [N-]=[N+]=NCC1OC(n2cnc3c(NC(=O)Nc4ccccc4)ncnc32)C2OC(=O)CC12 (stereo unspecified)
6. Cc1cccc(N2C(=O)/C(=C/C(Cl)=C/c3ccc([N+](=O)[O-])cc3)SC2=S)c1C

[83.5, 101, 91.2, 15.6, 95.2, 22.6]

I'm hoping you can list growth for every molecule here, please.
1. O=C1CCC(C(=O)N/N=C/c2cc(F)ccc2F)N1 (stereo unspecified)
2. CCn1cc(C(=O)O)c(=O)c2cc(F)c(N3CCN(CC(=O)Nc4ccccc4)C(C)C3)c(F)c21 (stereo unspecified)
3. CN1c2ccccc2S(=O)(=O)n2c(SCC(=O)Nc3nc4ccc(F)cc4s3)nnc21
4. CC1=C(Cl)C(=O)c2cc(C)ccc2C1=O
5. CN(C)c1ccc(CNCCO)cc1
6. Cc1cc(O)cc(-c2nn(C)cc2-c2cc(N3CCOCC3)nc(-c3cccnc3)n2)c1
7. COC(=O)[C@@]1(C)CC[C@]2(C)CC[C@]3(C)C4=CC=C5C(=CC(=O)C(O)=C5C)[C@]4(C)[C@@H](O)C[C@@]3(C)[C@@H]2C1

97.6
97.9
82.8
101
76
39.3
88.3
